test: Biodistribution in PC-3 tumor-bearing CB17-SCID mice; type: in vivo; conditions: mouse, stomach, intravenous, 100 pmol, ^177Lu-labeled; 24 h p.i.; 100 pmol; n = 4; read-out: Uptake in Stomach
Starred links: 1 amine or outer side, 2 acyl side, 3 side chain; linkers in the order of their positions; H or OH if unused. Non-standard residues stand in square brackets, D forms with d. Residues, ends and D or L forms follow the SMILES beside them. *: point of attachment. DOTA = O=C(O)CN1CCN(CC(=O)O)CCN(CC(=O)*)CCN(CC(=O)O)CC1; Sta = CC(C)C[C@H](N)[C@@H](O)CC(=O)O; Bta = N[C@@H](Cc1csc2ccccc12)C(=O)O; X1 = O=C(CN1CCC(N[*:1])CC1)[*:2]; hSer = N[C@@H](CCO)C(=O)O
Reported tissue uptake at 24 h is given for each of the following compounds.
TEST_READOUT: tissue uptake at 24 h (%ID/g)

INSERT INTO assay_data (compound, test_readout, unit, test_value) VALUES
  ('CC(C)C[C@H](NC(=O)C[C@H](O)[C@H](CC(C)C)NC(=O)[C@H](Cc1c[nH]cn1)NC(=O)CNC(=O)[C@@H](NC(=O)[C@H](C)NC(=O)[C@H](Cc1csc2ccccc12)NC(=O)[C@H](CCC(N)=O)NC(=O)[C@@H](Cc1ccccc1)NC(=O)CN1CCC(NC(=O)CN2CCN(CC(=O)O)CCN(CC(=O)O)CCN(CC(=O)O)CC2)CC1)C(C)C)C(N)=O [[^177Lu]Lu-[Bta^8]RM2, metal not drawn] ({DOTA}-[X1][dF]Q[Bta]AVGH[Sta]L-NH2)', 'tissue uptake at 24 h', '%ID/g', 0.27),
  ('CC(C)C[C@H](NC(=O)C[C@H](O)[C@H](CC(C)C)NC(=O)[C@H](Cc1c[nH]cn1)NC(=O)CNC(=O)[C@@H](NC(=O)[C@H](C)NC(=O)[C@H](Cc1c[nH]c2ccccc12)NC(=O)[C@H](CCO)NC(=O)[C@@H](Cc1ccccc1)NC(=O)CN1CCC(NC(=O)CN2CCN(CC(=O)O)CCN(CC(=O)O)CCN(CC(=O)O)CC2)CC1)C(C)C)C(N)=O [[^177Lu]Lu-[Hse^7]RM2, metal not drawn] ({DOTA}-[X1][dF][hSer]WAVGH[Sta]L-NH2)', 'tissue uptake at 24 h', '%ID/g', 0.26);

Where do these numbers come from? They come from paper PMC12401824.
